Molecular target: HCN1 mutant Y289A (Homo sapiens, UniProt O60741, Y289A)
Construct: Full-length WT or mutant human HCN1 were cloned into the pcDNA3.1 vector; expressed in transfected cells; host or cells: HeLa cells, pcDNA3.1 vector, transient lipofection
Assay: Whole-cell patch-clamp, Ih inhibition, HCN1 mutant
Format: cell-based
Details: electrophysiological recordings, read-out: IC50 (Fig. 2F)
MEASUREMENT LABEL: IC50 (µM)
The response must be a number in µM with no trailing unit.

// IC50 lookup, compound = COc1cc2c(cc1OC)CC(=O)N(CCCN(C)C[C@H]1Cc3cc(OC)c(OC)cc31)CC2 [ivabradine] , result: 11.8

###

Target: HCN1 mutant F285A (Homo sapiens, UniProt O60741, F285A)
Construct: Full-length WT or mutant human HCN1 were cloned into the pcDNA3.1 vector
Sequence (O60741 1-890 F285A): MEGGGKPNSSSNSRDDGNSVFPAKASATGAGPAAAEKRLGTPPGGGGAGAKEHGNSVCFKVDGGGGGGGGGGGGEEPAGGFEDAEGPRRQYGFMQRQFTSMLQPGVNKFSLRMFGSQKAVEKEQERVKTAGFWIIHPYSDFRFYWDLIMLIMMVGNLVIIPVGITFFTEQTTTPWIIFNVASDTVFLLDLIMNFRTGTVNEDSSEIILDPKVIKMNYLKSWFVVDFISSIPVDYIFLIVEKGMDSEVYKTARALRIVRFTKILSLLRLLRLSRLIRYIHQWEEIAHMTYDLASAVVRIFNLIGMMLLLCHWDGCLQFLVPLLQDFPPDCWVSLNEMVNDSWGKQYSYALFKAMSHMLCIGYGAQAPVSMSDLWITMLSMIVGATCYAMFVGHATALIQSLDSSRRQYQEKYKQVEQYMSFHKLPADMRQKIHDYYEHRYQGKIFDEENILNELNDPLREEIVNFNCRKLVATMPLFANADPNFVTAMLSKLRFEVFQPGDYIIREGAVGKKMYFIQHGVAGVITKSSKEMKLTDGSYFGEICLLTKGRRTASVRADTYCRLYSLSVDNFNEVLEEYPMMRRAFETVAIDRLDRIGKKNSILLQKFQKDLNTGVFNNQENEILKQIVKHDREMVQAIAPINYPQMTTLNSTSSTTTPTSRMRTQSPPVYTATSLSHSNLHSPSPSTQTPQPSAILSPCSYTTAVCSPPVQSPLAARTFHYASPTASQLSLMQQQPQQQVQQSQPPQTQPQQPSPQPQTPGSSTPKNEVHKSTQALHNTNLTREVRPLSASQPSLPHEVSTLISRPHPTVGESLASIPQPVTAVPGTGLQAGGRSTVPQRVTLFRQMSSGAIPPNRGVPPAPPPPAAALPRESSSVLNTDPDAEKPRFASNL
Assay: Whole-cell patch-clamp, Ih inhibition, HCN1 mutant
Conditions: electrophysiological recordings, read-out: IC50 (Fig. 2F)
MEASUREMENT LABEL: pIC50
API: returns pIC50 as number; meaning -log10 of concentration in mol/L.

So the reported pIC50 for `COc1cc2c(cc1OC)CC(=O)N(CCCN(C)C[C@H]1Cc3cc(OC)c(OC)cc31)CC2` , on HCN1 mutant F285A (Homo sapiens, UniProt O60741, F285A), turned out to be 4.87

###

Target: HCN1 mutant W281A (Homo sapiens, UniProt O60741, W281A)
Construct: Full-length WT or mutant human HCN1 were cloned into the pcDNA3.1 vector
Experiment: Whole-cell patch-clamp, Ih inhibition, HCN1 mutant
Conditions: electrophysiological recordings, read-out: IC50 (Fig. 2F)
MEASUREMENT LABEL: pIC50
API: returns pIC50 as number; meaning -log10 of concentration in mol/L.

So the reported pIC50 for COc1cc2c(cc1OC)CC(=O)N(CCCN(C)C[C@H]1Cc3cc(OC)c(OC)cc31)CC2 [ivabradine] , on HCN1 mutant W281A (Homo sapiens, UniProt O60741, W281A), turned out to be 4.76
